Data provenance: patent US20220275067A1

# TARGET OF ASSAY: T1, recombinant human 4R0N tau (human, UniProt P10636 2-758)
# T1 construct: also called recombinant 4R0N human tau; P10636-6
# T1 sequence (P10636 other isoform, or with tags, fused parts or gaps limits assumed): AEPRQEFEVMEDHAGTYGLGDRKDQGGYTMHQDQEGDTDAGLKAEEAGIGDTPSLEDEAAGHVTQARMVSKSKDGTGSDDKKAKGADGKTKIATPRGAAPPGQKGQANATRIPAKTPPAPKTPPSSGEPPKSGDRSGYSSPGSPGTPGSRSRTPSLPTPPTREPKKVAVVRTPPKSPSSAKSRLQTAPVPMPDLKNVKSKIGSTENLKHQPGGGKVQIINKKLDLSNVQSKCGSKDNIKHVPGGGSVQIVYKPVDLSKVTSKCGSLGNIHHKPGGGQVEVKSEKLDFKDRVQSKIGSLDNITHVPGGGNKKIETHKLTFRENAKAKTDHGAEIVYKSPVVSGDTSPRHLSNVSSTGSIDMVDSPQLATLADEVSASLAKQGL
# EXPERIMENTAL PROTOCOL: SPR Biacore T200; antibody captured by anti-human Fc; tau as analyte; global 1:1 fit
# Procedure: Target binding analysis was performed using a Biacore T200 to compare the binding affinity of humanized 9F5 variants to recombinant human 4R0N tau. Anti-Human Fc antibody was immobilized on sensor chip CM3 via amine coupling, and humanized 9F5 variants were captured to equivalent levels. […]
ENDPOINT: kon (M⁻¹ s⁻¹)
Provide only the numeric value, understood in M⁻¹ s⁻¹.

hu9F5VHv9/hu9F5VLv8_DIM29 (antibody, V domains shown) VH: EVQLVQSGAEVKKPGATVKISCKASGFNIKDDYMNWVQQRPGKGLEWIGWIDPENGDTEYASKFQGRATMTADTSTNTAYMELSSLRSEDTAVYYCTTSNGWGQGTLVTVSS VL: DIQMTQSPFSLPVTPGESASISCRSSKSLSHSNGITYLYWYQQKPGQSPQLLIYQMSNRASGVPNRFSSSGSGTDFTLKISRVEAEDVGVYYCAQNIELPLTFGQGTKLEIK : 1.98e+06
hu9F5VHv10/hu9F5VLv9_DIM4 (antibody, V domains shown) VH: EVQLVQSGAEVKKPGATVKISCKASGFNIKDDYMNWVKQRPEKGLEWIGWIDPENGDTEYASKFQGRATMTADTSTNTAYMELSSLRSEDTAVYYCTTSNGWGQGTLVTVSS VL: DIQMTQSPFSLPVTPGESASISCRSSKSLSHSNGITYLYWYQQKPGQSPQLLIYQGSNRASGVPDRFSSSGSGTDFTLKISRVEAEDVGVYYCAQNGELPLTFGQGTKLEIK : 2.53e+06

Need kon of hu9F5VHv9/hu9F5VLv8_DIM20 (antibody, V domains shown) VH: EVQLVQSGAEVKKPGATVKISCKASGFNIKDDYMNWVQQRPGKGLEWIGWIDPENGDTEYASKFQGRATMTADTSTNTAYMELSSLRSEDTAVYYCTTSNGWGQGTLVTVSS VL: DIQMTQSPFSLPVTPGESASISCRSSKSLSHSNGITYLYWYQQKPGQSPQLLIYQISNGASGVPNRFSSSGSGTDFTLKISRVEAEDVGVYYCAQNIELPLTFGQGTKLEIK , thanks. 5.64e+06
